- System: MDA-MB-231 breast
- test: NCI-60 one-dose screen, 48 h (100 = growth as untreated, 0 = no growth, -100 = all killed)
- conditionNotes: 10 µM unless noted
This is part of a sample that, as a whole, favours compounds with a hit. Of some 83,000 tested, about 20% had one in any assay.
quantity: growth (%)

[[record]]
compound = "Nc1ncnc2n[nH]nc12"
unitofmeasurement = "%"
reportedresult = 74.9

[[record]]
compound = "Cc1cc(N(CCCl)CCCl)ccc1C=Nc1ccc(-c2csc(Cc3ccccc3)n2)cc1"
unitofmeasurement = "%"
reportedresult = 83.3

[[record]]
compound = "CCC(O)(CN)c1ccccc1 (centres undefined)"
unitofmeasurement = "%"
reportedresult = 101

[[record]]
compound = "O=P(N1CC1)(N1CC1)N1CCc2ccccc21"
unitofmeasurement = "%"
reportedresult = 104

[[record]]
compound = "O=C(CCCC1CCCCC1)OCC(Cl)(Cl)Cl"
unitofmeasurement = "%"
reportedresult = 116

[[record]]
compound = "COC(=O)[C@@H](C)C[C@H](Cc1ccccc1)NC(=O)c1nc([C@@H](C[C@H](C(C)C)N(C)C(=O)[C@@H](NC(=O)[C@H]2CCCCN2C)C(C)C)OC(C)=O)sc1C(C)C"
unitofmeasurement = "%"
reportedresult = 2.67

[[record]]
compound = "CN1CC(=O)N(O)C1(C)c1cccnc1 (centres undefined)"
unitofmeasurement = "%"
reportedresult = 113

[[record]]
compound = "CCCCN1CCCC[C@@H]1C(=O)N[C@H](C(=O)N(C)[C@H](C[C@@H](OC(C)=O)c1nc(C(=O)NC2CCC(C(=O)OC)CC2)cs1)C(C)C)C(C)C (some centres undefined)"
unitofmeasurement = "%"
reportedresult = 45.7

[[record]]
compound = "CN1C(=O)C23CC4(C56CC78SSC(CO)(C(=O)N7C5Nc5ccccc56)N(C)C8=O)c5ccccc5NC4N2C(=O)C1(CO)SS3 (centres undefined)"
unitofmeasurement = "%"
reportedresult = -94.1


The reported numbers originate from PubChem BioAssay (NCI).
